target: RanGTP-importin-beta complex (human Ran / KPNB1); assay: disruptors of RanGTP/KPNB1 binding – biochemical, FRET, CFP/YFP, cell-free homogeneous, confirmation (AID 2823); conditions: CFP-Ran/YFP-importin-beta FRET ratio
Active and inactive are the calls of the source. How the calls were made is not given here.
The reply should name one outcome from y = active, n = inactive

### Prompt Given Cc1ccc(NC(=O)Cn2nc(C(F)(F)F)c3c2CCC3)cc1 , state the outcome it received in this test.
### Response n

### Prompt Same thing, different compound: CC(C)OC(=O)c1nnn(-c2nonc2N)c1CN1CCCCCC1
### Response n

### Prompt Likewise for Cc1ccc2cc(C#N)c(N3CCCN(S(=O)(=O)c4ccc(F)cc4)CC3)nc2c1 ?
### Response y

### Prompt Please give the result for Cc1ccc(C2C(C#N)=C(N)N(c3cccnc3)C3=C2C(=O)CCC3)c(C)c1 (stereo not given) too.
### Response n

### Prompt Another compound to check: CC(C)c1ccc(CN2CCC(Oc3ccc(C(=O)N4CCCC4)cc3)CC2)cc1
### Response n

### Prompt Item: OCCNc1nc(-c2ccccc2)nc2ccccc12
### Response n

### Prompt Next record, please: Cc1cc(C=C(C#N)C#N)ccc1N1CCCC1
### Response n

### Prompt Here is the next compound: COC(=O)Nc1ccc(NC(C)=O)cc1
### Response n

### Prompt Also need COc1ccc(-c2nc(/C=C3\C(C)=Nc4ccccc43)c(O)o2)cc1 , thanks.
### Response n

### Prompt Okay, and COc1cc(NC(=O)Cn2ncc(Cl)c(Cl)c2=O)c(C)cc1[N+](=O)[O-] ?
### Response n

### Prompt Follow-up item: NC(=O)CN(Cc1ccccc1)S(=O)(=O)c1ccc2c(c1)OCCO2
### Response n

### Prompt How about this compound: Cc1cccc(OCC(=O)NNc2c3ccccc3nc3ccccc23)c1
### Response n

### Prompt And for COc1cc2cc(C(N)=O)c(N)nc2cc1OC ?
### Response y

### Prompt Next compound: COc1ccc(C(CNC(=O)c2cc(F)c(F)c(F)c2F)N2CCOCC2)cc1 (stereo not given)
### Response n

### Prompt Repeat with N#Cc1c2ncn(CC(=O)c3ccc(Br)cc3)c(=O)c2c2n1CCC2
### Response n

* * *

target: RanGTP-importin-beta complex (human Ran / KPNB1); assay: disruptors of RanGTP/KPNB1 binding – biochemical, FRET, CFP/YFP, cell-free homogeneous, confirmation (AID 2823); conditions: CFP-Ran/YFP-importin-beta FRET ratio
Calls of active or inactive are those of the source. How the calls were made is not given here.
Pick from TRUE = active, FALSE = inactive when you respond.

### Prompt For CCOC(=O)c1c(C)oc2cc(Br)c(OCC(N)=O)cc12 , what call appears in the results of this test?
### Response FALSE

### Prompt Cool, now CCc1cc2c(COC(=O)c3c(C)noc3C)cc(=O)oc2cc1O
### Response FALSE

### Prompt Would you mind doing COCCCn1c(N)c(C(=O)OC(C)COC)c2nc3ccccc3nc21 (stereo not drawn) as well?
### Response TRUE

### Prompt Same question, Cc1sc2nc(COC(=O)Cc3ccccc3)[nH]c(=O)c2c1C this time
### Response FALSE

### Prompt Same thing, different compound: Oc1cccc(/C=N/Nc2cc(N3CCCC3)nc(N3CCCC3)n2)c1
### Response FALSE

### Prompt Can you check O=c1cc(N2CCN(Cc3ccccc3)CC2)[nH]c(=O)n1-c1ccc(Br)cc1 next?
### Response FALSE

### Prompt // next record Fc1ccccc1N1CCN(c2nc3ccccc3n3nnnc23)CC1
### Response TRUE

### Prompt Queued: Cc1[nH]c2ccccc2c1/C=C/c1nc2ccccc2c(=O)n1CCO
### Response FALSE

### Prompt Next compound up: O=C(Cc1cc(=O)oc2cc(O)ccc12)N[C@@H](Cc1c[nH]c2ccccc12)C(=O)O
### Response FALSE

### Prompt Lookup COc1ccc(C(=O)Oc2c(CN3CCOCC3)cc(Cl)c3cccnc23)cc1
### Response FALSE

### Prompt And Cc1c(CC(=O)NCC(=O)N[C@H](Cc2ccccc2)C(=O)O)c(=O)oc2cc(O)ccc12 ?
### Response TRUE

### Prompt Also check NC(=O)c1sc2nccc(Nc3ccccc3)c2c1N
### Response FALSE

### Prompt Same for Cc1cc(Cl)ccc1C(=O)C1CCCN(C(=O)c2n[nH]c3c2CCCC3)C1 (stereo not drawn)
### Response FALSE
